# targetOfAssay: F508delCFTR (Homo sapiens, UniProt P13569, DEL508-508)
# Construct: expressed in transfected cells; host or cells: CFBE41o- human lung-derived epithelial cells (CFBE4lo-F508delCFTR-HRP), doxycycline-inducible
# Sequence (P13569 with tags, fused parts or gaps DEL508-508): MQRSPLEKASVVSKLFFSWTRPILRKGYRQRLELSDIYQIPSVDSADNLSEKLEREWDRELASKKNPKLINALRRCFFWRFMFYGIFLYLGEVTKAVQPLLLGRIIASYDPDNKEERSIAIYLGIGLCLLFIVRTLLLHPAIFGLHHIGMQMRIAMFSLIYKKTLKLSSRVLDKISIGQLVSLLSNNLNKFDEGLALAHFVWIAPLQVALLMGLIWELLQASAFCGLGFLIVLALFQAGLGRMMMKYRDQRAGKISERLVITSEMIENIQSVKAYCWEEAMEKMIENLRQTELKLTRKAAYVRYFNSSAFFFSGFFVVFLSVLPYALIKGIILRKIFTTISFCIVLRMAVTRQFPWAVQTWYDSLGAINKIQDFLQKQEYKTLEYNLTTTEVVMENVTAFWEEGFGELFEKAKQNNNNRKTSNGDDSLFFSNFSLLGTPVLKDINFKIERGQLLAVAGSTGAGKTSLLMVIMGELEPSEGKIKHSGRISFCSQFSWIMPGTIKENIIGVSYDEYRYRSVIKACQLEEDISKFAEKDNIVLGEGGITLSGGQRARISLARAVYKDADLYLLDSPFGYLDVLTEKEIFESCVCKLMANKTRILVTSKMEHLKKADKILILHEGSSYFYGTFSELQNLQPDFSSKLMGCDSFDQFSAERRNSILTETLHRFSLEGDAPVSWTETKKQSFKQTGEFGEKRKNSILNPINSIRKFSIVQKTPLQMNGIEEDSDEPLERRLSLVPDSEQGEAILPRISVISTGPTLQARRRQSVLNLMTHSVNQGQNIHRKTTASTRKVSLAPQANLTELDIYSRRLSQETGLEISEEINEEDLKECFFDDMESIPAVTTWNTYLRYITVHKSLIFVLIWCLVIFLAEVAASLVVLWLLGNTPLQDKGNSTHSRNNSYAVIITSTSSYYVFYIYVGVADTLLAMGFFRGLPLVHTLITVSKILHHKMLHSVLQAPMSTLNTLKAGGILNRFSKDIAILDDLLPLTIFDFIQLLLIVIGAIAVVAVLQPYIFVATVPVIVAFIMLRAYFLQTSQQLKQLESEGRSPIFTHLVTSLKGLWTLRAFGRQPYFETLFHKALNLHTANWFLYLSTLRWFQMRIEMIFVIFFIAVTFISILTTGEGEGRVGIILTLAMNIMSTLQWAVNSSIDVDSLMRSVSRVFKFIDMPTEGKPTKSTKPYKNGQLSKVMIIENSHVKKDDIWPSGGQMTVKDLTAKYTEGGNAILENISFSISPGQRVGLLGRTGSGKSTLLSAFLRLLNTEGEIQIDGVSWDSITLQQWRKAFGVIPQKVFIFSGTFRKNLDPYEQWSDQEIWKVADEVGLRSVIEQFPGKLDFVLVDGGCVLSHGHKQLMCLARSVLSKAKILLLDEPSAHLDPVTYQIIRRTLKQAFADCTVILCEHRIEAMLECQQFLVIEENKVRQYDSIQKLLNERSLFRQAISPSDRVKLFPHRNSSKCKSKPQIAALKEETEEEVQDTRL
# assaySummary: Cell Surface Expression-Horse Radish Peroxidase (CSE-HRP) Assay
# Type: cell-based
# statedConditions: test compound without co-corrector; read-out: EC50 (without co-corrector)
pEC50: −log10 of the molar value.
measuredAttribute: pEC50

As a guide, the following entries are already answered.
molecule: CC(C)(C)[C@@H]1[C@@H](NCc2cc(C(F)(F)F)cnc2OCCO)[C@@H](c2ccccc2)N(C(=O)C2CCCCC2)[C@H]1C(=O)O (racemic) [III-87]
measuredAttribute: pEC50
reportedResult: < 5.00

molecule: COc1cc2ccccc2cc1CN[C@H]1[C@H](C(C)(C)C)[C@@H](C(=O)O)N(C(=O)C2CCCCC2)[C@H]1c1ccccc1 [Example I-42]
measuredAttribute: pEC50
reportedResult: 5.00 to 6.00

molecule: COc1ccc(C(C)(C)C)cc1CN[C@H]1[C@H](C23CC(C2)C3)[C@@H](C(=O)O)N(C(=O)OC(C)C)[C@H]1c1ccccc1F [III-222]
measuredAttribute: pEC50
reportedResult: 5.00 to 6.00

molecule: Cn1c(=O)c2c(N[C@H]3[C@H](C(C)(C)C)[C@@H](C(=O)O)N(C(=O)C4CCCCC4)[C@H]3c3ccccc3)nccc2n(C)c1=O [III-157]
measuredAttribute: pEC50
reportedResult: < 5.00

molecule: COc1ccc(C(C)(C)C)cc1CN[C@H]1[C@H](C(C)(C)C)[C@@H](C(=O)O)N(C(=O)c2ccc(OC3CCOCC3)cc2)[C@H]1c1cccnc1N(C)C [II-465]
measuredAttribute: pEC50
reportedResult: 5.00 to 6.00

Request: Give its pEC50 value. Item: COc1cnc(C2CCC2)cc1CN[C@H]1[C@H](C(C)(C)C)[C@@H](C(=O)O)N(C(=O)C2CCCCC2)[C@H]1c1ccccc1 [Example I-168]
Result: 5.00 to 6.00
